Attribute: apparent KD of K4 kissing-loop reporter
# Tested on: K4 kissing-loop RNA reporter;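 also: bound reporter read as fluorescence of individual clusters on recovered sequencing chips by microscopy, with normalized cluster intensities fitted with a binding model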
# test_details: apparent KD of K4 kissing-loop reporter; higher = weaker reporter binding
# assay_setup: Eterna round: R107; input ligand: FMN 200 uM
I only need the number, in µM, no unit after it.

AGGAUGUAGUGAUGUUAUAUAAGAAGUAAACGAGGACCGGUACGGCCGCCACUCGAAGCGGCUACUAGCGCGCCGCGAGGCGCGC [ExTryptoA.Cb] :: 0.37
UAACUGCAGUGAUGUUGCAGAUGUCCUGACUAGGAUAUCAGGAAACUGAGAAGGAGUCCCUUCUAAACAUCACAGAAGGAGGACA [[K1]-[K2]-[F1]'-[F1]-[F2]-[F2]'-[K]'-[F]''_Design2] :: 0.491

**Query** Dear colleague, I am looking for the recorded apparent KD of K4 kissing-loop reporter of the following sequence: CUAGCCGGGAAAGGAUAUACACACGCACAUAACGAGUGAUGUUCGUUAAUACCAACUUGGUUAACUGUAGAAGGUUCAUCGUCAC [theeternabot_sameState_KL_FMN_B_36]
**Result** 0.579

**Query** Same read-out for GAUGAUCGCGCGGCCGCCACUGGUCAGUGAUGUUGACAUUAAUGCGCCGAGUAGUAACGGCGCAGUAGGACCGGGCGCGAUGUAG [#13 K4 Tryptophan B Same State] ?
**Result** 0.151

**Query** Same read-out for GAUUCUAGCGAAAGUGAUGUUUUCGAGGAUACCAGUGCCACUUGACACCCUUGGCAGCCUACCCGUCAUCACAAGUGGCGUUAAA [theeternabot_exclusion_KL_Theo_A_28] ?
**Result** 0.136

**Query** Same read-out for AGCCAUCACACGGCCGCCACUGAGUAGUGAUGUUGCUUGUAAAUCAGUCACCGCAUUAAUGCCGACAGGACCGGGUGCAUCGAGG [theeternabot_exclusion_KL_Trp_B_17] ?
**Result** 0.327

**Query** Same read-out for AAAAUAAAUCAGUGAUGUUGGUAUCUGGAUACCAGCGAUAAUAGUCGCCCUUGGCAGCCAUGGACGUACAAAAUAAGUACGUCCU [MatMod 19 - Jieux - Same State - Theophylline A] ?
**Result** 0.221

**Query** Same read-out for AACUCUCAGGCACGCGAGUGAUGUUCGCGGCGAGGACCGGUACGGCCGCCACUCGCGCCUGAGAGAGGUUAUCAAAGAUAGCCAA [whbob_SS_tryp_A] ?
**Result** 0.146

Reference source: the supplement of paper PMC9170038
